TEST SUMMARY: Measurement of thermodynamic solubility
Type: physicochemical
MEASUREMENT CONTEXT: aqueous buffer, thermodynamic from solid; 50 mM phosphate buffer pH 7.4, 24 hours, room temperature; read-out: thermodynamic solubility (pH: 7.4)
PROPERTY: solubility thermodynamic at 24 h

Record summary for "NC(=O)NCCSc1nonc1/C(=N/O)Nc1ccc(F)c(Br)c1" : reported solubility thermodynamic at 24 h = 125 µM

---

TEST SUMMARY: Liver microsome stability, human
Format: in vitro ADME
MEASUREMENT CONTEXT: human liver microsomes; read-out: Intrinsic clearance
PROPERTY: CLint scaled (mL/min/kg)
Report the figure in mL/min/kg without appending any unit label.

Record summary for "CC(=O)NCCSc1nonc1/C(=N/O)Nc1ccc(F)c(Br)c1" : reported CLint scaled = 15.3

---

TEST SUMMARY: Pharmacokinetics experiment of mice in vivo, single intravenous injection
Set-up: species or system male CD-1 mice
MEASUREMENT CONTEXT: male, CD-1, plasma; Mouse PK, IV 1 mg/kg
// reported AUC(0-t) for each item listed
Report the figure in µM·h without appending any unit label.

CC(=O)NCCSc1nonc1/C(=N/O)Nc1ccc(F)c(Br)c1    0.624

Record summary for "NC(=O)NCCSc1nonc1/C(=N/O)Nc1ccc(F)c(Br)c1" : reported AUC(0-t) = 0.852

---

TEST SUMMARY: Test for permeability across MDR1
Type: in vitro ADME
MEASUREMENT CONTEXT: dog, MDCK-MDR1
PROPERTY: Papp B→A at 150 min, 2 µM (×10⁻⁶ cm/s)
Report the figure in ×10⁻⁶ cm/s without appending any unit label.

NC(=O)NCCSc1nonc1/C(=N/O)Nc1ccc(F)c(Br)c1 [Compound 0231]    17.9
CC(=O)NCCSc1nonc1/C(=N/O)Nc1ccc(F)c(Br)c1 [Compound 0227]    18
NS(=O)(=O)NCCSc1nonc1/C(=N/O)Nc1ccc(F)c(Br)c1 [Compound 0117]    11.3
NS(=O)(=O)NCCNc1nonc1C(=NO)Nc1ccc(F)c(Br)c1 [Compound 360, INCB024360, reference compound]    13.3

Record summary for CCS(=O)(=O)NCCSc1nonc1/C(=N/O)Nc1ccc(F)c(Br)c1 [Compound 0228] : reported Papp B→A at 150 min, 2 µM = 10.5

Record summary for NS(=O)(=O)NCCOc1nonc1/C(=N/O)Nc1ccc(F)c(Br)c1 [Compound 0015] : reported Papp B→A at 150 min, 2 µM = 13.6

---

// reported Papp B→A at 120 min, 2 µM for each item listed
TEST SUMMARY: Test for permeability across Caco2
Format: in vitro ADME
MEASUREMENT CONTEXT: human, Caco-2

NS(=O)(=O)NCCSc1nonc1/C(=N/O)Nc1ccc(F)c(Br)c1 [Compound 0117]    12.2 ×10⁻⁶ cm/s
NC(=O)NCCSc1nonc1/C(=N/O)Nc1ccc(F)c(Br)c1 [Compound 0231]    20.1 ×10⁻⁶ cm/s

Record summary for NS(=O)(=O)NCCNc1nonc1C(=NO)Nc1ccc(F)c(Br)c1 [Compound 360, INCB024360, reference compound] : reported Papp B→A at 120 min, 2 µM = 19.6 ×10⁻⁶ cm/s

---

EXPERIMENTAL TARGET: recombinant human IDO1 enzyme (Homo sapiens, UniProt P14902)
Sequence (P14902 whole entry): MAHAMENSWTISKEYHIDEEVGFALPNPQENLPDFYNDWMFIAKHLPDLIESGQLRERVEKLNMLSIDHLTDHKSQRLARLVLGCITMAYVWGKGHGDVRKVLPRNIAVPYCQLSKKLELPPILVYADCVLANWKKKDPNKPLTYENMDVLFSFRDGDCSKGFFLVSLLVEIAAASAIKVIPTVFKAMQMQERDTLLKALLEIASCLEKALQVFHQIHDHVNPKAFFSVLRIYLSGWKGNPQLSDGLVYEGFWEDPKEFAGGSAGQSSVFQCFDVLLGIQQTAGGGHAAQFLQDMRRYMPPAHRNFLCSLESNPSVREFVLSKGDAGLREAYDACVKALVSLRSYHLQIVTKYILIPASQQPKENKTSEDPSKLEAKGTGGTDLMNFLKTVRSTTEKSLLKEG
TEST SUMMARY: Test of hIDO1 for enzymatic activity in vitro (NFK Green fluorescence)
// reported log10(IC50) for each item listed
Note the log scale: values are log10 of IC50 expressed in nM.

CN(C)CCOc1nonc1/C(=N/O)Nc1ccc(F)c(Br)c1 [Compound 0140]    2.29
CP(C)(=O)NCCOc1nonc1/C(=N/O)Nc1ccc(F)c(Br)c1 [Compound 0149]    2.46
O=C(CO)NCCSc1nonc1/C(=N/O)Nc1ccc(F)c(Br)c1 [Compound 0293]    1.78
NS(=O)(=O)NCCSc1nonc1/C(=N/O)Nc1cccc(I)c1 [Compound 0295]    2.09

Field: next molecule
Record summary for COC(=O)NCCSc1nonc1/C(=N/O)Nc1ccc(F)c(Br)c1 [Compound 0250] : reported log10(IC50) = 2.14
